Where do these numbers come from? They come from PubChem BioAssay (NCI).

Test system: HT29 colon
Test: NCI-60 one-dose screen, 48 h
Details: 10 µM unless noted
The panel holds about 83,000 compounds, 20% with a hit somewhere; the sample as a whole holds those more often. Active and inactive are the calls of the source. How the source made its calls: active means growth percent below 10; inactive means the rest.
Answer with one of the outcomes 1 for active, 0 for inactive

molecule: COc1ccc(-c2cc(-c3cccnc3)nc3sc4c(N)c(C(C)=O)c(-c5ccccc5)nc4c23)cc1OC
answer label: 0
//
molecule: Nc1cccc(-c2ccc(COc3ccc(CC4SC(=O)NC4=O)cc3)cc2)c1 (stereo unspecified)
answer label: 0
//
molecule: COc1ccc(-c2cc(-c3cc(OC)ccc3OC)nc(SCC(C)=O)c2C#N)cc1
answer label: 0
//
molecule: CCN(CC)CCCC(Cc1ccccc1)Nc1c2ccc(Cl)cc2nc2ccc(OC)cc12 (stereo unspecified)
answer label: 0

Which outcome was assigned to CS(=O)(=O)Nc1cc(-c2ccc3ncnc(Nc4ccc(OCc5ccccn5)c(Cl)c4)c3c2)cnc1Cl in this test?
1

Which outcome was assigned to COc1ccc(N/N=C/c2cn(-c3ccc(C(=O)O)cc3)nc2-c2cc3ccccc3oc2=O)cc1 in this test?
0
